- Target Under Test: T1, human PVR (SPR of the humanized variants, Example 5) (human, UniProt P15151 21-343)
- T1 sequence: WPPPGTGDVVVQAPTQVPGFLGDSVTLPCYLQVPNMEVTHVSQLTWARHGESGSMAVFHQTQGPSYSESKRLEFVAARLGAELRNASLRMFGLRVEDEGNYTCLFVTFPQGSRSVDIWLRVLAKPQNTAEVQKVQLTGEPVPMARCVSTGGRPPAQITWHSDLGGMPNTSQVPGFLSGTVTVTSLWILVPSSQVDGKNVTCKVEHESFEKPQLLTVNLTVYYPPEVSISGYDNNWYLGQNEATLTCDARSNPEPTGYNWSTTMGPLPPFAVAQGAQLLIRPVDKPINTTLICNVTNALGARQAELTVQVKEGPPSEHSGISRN
- Measurement Protocol: SPR; relative to N56E VH0/Vκ0
Recorded Relative KD values for a group of binders are listed next.

Known Relative KD results, listed for orientation:
# Binder, Relative KD
records = [
    ("humanized 5B9 variant VH5/VK2 (antibody, V domains shown) VH: QVQLVQSGAEVKKPGASVKVSCKATGYTFSNYWIEWVRQAPGQGLEWMGEIFPGSGRINFNEKFKGRVTFTADTSISTAYMELSRLRSDDTAVYYCARTKIYGNSFDYWGQGTLVTVSS VL: DIQMTQSPSSLSASVGDRVTITCKASQDVGTAVVWYQQKPGKAPKLLIYWASSRHEGVPDRFSGSGSGTDFTLTISSLQPEDFADYFCQQYSRYPLTFGQGTKLEIK", 1.03),
    ("humanized 5B9 variant VH4/VK3 (antibody, V domains shown) VH: QVQLVQSGAEVKKPGASVKVSCKATGYTFSNYWIEWVRQAPGQGLEWIGEIFPGSGRINFNEKFKGRVTFTADTSISTTYMELSRLRSDDTAVYYCARTKIYGNSFDYWGQGTLVTVSS VL: DIQMTQSPSSLSASVGDRVTITCRASQDVGTAVVWYQQKPGKAPKLLIYWASSRHEGVPSRFSGSGSGTDFTLTISSLQPEDFATYFCQQYSRYPLTFGQGTKLEIK", 0.92),
    ("humanized 5B9 variant VH3/VK1 (antibody, V domains shown) VH: QVQLVQSGAEVKKPGASVKVSCKATGYTFSNYWIEWIKQAPGQGLEWIGEIFPGSGRINFNEKFKGRVTFTADTSISTTYMELSRLRSDDTAVYYCARTKIYGNSFDYWGQGTLVTVSS VL: DIMMTQSPSFLSASVGDRVTITCKASQDVGTAVVWYQQKPGKAPKLLIYWASSRHEGVPDRFTGSGSGTDFTLTISSLQSEDFADYFCQQYSRYPLTFGQGTKLEIK", 0.82),
    ("humanized 5B9 variant VH4/VK1 (antibody, V domains shown) VH: QVQLVQSGAEVKKPGASVKVSCKATGYTFSNYWIEWVRQAPGQGLEWIGEIFPGSGRINFNEKFKGRVTFTADTSISTTYMELSRLRSDDTAVYYCARTKIYGNSFDYWGQGTLVTVSS VL: DIMMTQSPSFLSASVGDRVTITCKASQDVGTAVVWYQQKPGKAPKLLIYWASSRHEGVPDRFTGSGSGTDFTLTISSLQSEDFADYFCQQYSRYPLTFGQGTKLEIK", 0.83),
    ("humanized 5B9 variant VH3/VK2 (antibody, V domains shown) VH: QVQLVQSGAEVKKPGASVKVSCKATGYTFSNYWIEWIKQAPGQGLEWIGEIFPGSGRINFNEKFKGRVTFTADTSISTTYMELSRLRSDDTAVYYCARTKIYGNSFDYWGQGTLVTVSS VL: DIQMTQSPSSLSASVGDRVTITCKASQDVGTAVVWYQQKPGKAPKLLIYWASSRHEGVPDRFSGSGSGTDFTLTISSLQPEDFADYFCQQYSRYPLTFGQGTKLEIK", 0.78),
    ("humanized 5B9 variant VH1/VK3 (antibody, V domains shown) VH: QVQLVQSGAELKKPGASVKISCKATGYTFSNYWIEWIKQAPGQGLEWIGEIFPGSGRINFNEKFKGRATFTADTSIDTTYMQLSSLTSDDSAVYYCARTKIYGNSFDYWGQGTTVTVSS VL: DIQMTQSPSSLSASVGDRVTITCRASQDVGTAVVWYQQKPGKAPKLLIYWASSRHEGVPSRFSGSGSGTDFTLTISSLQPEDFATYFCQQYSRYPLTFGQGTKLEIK", 0.9),
]

Prompt line: For humanized 5B9 variant VH1/VK1 (antibody, V domains shown) VH: QVQLVQSGAELKKPGASVKISCKATGYTFSNYWIEWIKQAPGQGLEWIGEIFPGSGRINFNEKFKGRATFTADTSIDTTYMQLSSLTSDDSAVYYCARTKIYGNSFDYWGQGTTVTVSS VL: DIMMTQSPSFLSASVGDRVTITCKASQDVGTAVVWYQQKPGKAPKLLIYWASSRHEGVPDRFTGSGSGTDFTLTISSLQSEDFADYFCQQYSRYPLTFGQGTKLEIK , write its Relative KD.
Response line: 0.75

Prompt line: // Input: chimeric 5B9 N56E variant, IgG4(S241P) N56E_VH0/VK0 (antibody, name in Kabat numbering, V domains shown, Human IgG4 (S241P) constant region; also called chimeric N56E mutated parental antibody) VH: QVQLQQSGAELMKPGASVKISCKATGYTFSNYWIEWIKQRPGHGLEWIGEIFPGSGRINFNEKFKGKATFTADTSSDTTYMQLSSLTSADSAVYYCARTKIYGNSFDYWGQGTTLTVSP VL: DIMMTQSHKFMSTSVGDRVNITCKASQDVGTAVVWYQQKPGQSPKLLIYWASSRHEGVPDRFTGSGSGTDFTLTISNVQSEDLSDYFCQQYSRYPLTFGAGTKLELK . Output its Relative KD only.
Response line: 1

Prompt line: Using known records, supply Relative KD for humanized 5B9 variant VH5/VK1 (antibody, V domains shown) VH: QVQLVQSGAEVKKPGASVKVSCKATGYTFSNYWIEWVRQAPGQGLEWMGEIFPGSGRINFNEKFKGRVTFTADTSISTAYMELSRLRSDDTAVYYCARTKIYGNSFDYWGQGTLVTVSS VL: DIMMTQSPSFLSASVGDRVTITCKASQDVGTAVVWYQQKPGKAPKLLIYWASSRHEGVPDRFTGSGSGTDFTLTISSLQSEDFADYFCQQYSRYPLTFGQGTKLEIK
Response line: 1.07

Prompt line: Give the value of Relative KD reported for the following: IgG4(S241P)_N56E_VH2/Vκ4 (antibody, V domains shown, humanized 5B9 variant with Vk4; also called VH2/Vk4) VH: QVQLVQSGAEVKKPGASVKISCKATGYTFSNYWIEWIKQAPGQGLEWIGEIFPGSGRINFNEKFKGRATFTADTSIDTTYMELSRLRSDDTAVYYCARTKIYGNSFDYWGQGTLVTVSS VL: DIQMTQSPSSLSASVGDRVTITCRASQDVGTAVAWYQQKPGKAPKSLIYWASSRHEGVPSRFSGSGSGTDFTLTISSLQPEDFATYFCQQYSRYPLTFGQGTKLEIK
Response line: 14.1

Sourced from patent US20260152568A1
